Values from ChEMBL document CHEMBL1133461

reported_metric: Log k'w

1) C[C@]12C=CC(=O)C=C1CC[C@@H]1[C@@H]2C(=O)C[C@@]2(C)[C@H]1CC[C@]2(O)C(=O)CO : 1.21
2) CC(=O)c1ccccc1 : 1.31
3) C[C@]12C=CC(=O)C=C1CC[C@@H]1[C@@H]2[C@@H](O)C[C@@]2(C)[C@H]1CC[C@]2(O)C(=O)CO : 1.54
4) Clc1ccccc1C(c1ccccc1)(c1ccccc1)n1ccnc1 : 4.13
5) COC1=CC(=O)C[C@@H](C)[C@]12Oc1c(Cl)c(OC)cc(OC)c1C2=O : 2.21

====

Listed next: entries and their corresponding logP.
assay: Partition coefficient (logP) (HPLC); settings: octanol/water
reported_metric: logP

1) Oc1ncnc2[nH]ncc12 : -0.85
2) CC(=O)Nc1ccc(O)cc1 : 0.11
3) CN1C(=O)C(O)N=C(c2ccccc2Cl)c2cc(Cl)ccc21 (stereo unspecified) : 2.78
4) Oc1cc(Cl)cc(Cl)c1 : 3.88
5) c1ccc(-c2ccc(C(c3ccccc3)n3ccnc3)cc2)cc1 (stereo unspecified) : 4.95
6) Cc1cccc(N(C)C(=S)Oc2ccc3ccccc3c2)c1 [TOLNAFTATE] : 5.15
